# test: label from the status in PepcDB records
quantity: protein production

construct_sequence=MTRNDSGDLISRNDSTNHMNTTQPQKMLPEATFSDRMLEIGIKYKKQLTALVVVICLAAGGTLFWMQKTKVDEVQASLALAKITPWIEMGDVNKAVNGEGSIKGLNSIIKTWGGTPSGKTARLYMAYILLNSGKPDDALSIYKGFSSDNKDLQASALAGAAACHVQKKAFAEAAPEYEKASETAENETLKSMYLTKAAESYSAAGQADKAAKLYDQVIKTWPATSSAGMAQRALLRLAGAGVQIPQI reported_result=failed
construct_sequence=MSANDKQYISYNNVHQLCQVSAERIKNFKPDLIIAIGGGGFIPARILRTFLKEPGVPTIRIFAIILSLYEDLNSVGSEVEEVGVKVSRTQWIDYEQCKLDLVGKNVLIVDEVDDTRTTLHYALSELEKDAAEQAKAKGIDTEKSPEMKTNFGIFVLHDKQKPKKADLPAEMLNDKNRYFAAKTVPDKWYAYPWESTDIVFHTRMAIEQGNDIFIPEQEHKQ reported_result=failed
